# assayed-target: MASP-2 CCP2-SP (Homo sapiens (Human))
# Sequence (O00187 445-686): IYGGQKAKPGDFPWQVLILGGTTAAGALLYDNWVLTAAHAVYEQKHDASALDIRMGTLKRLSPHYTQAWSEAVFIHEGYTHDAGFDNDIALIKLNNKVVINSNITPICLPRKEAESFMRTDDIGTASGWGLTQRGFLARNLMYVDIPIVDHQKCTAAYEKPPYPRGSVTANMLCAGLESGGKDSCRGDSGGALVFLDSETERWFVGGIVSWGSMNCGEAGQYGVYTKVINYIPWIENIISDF
# Sequence (O00187 364-432 partner): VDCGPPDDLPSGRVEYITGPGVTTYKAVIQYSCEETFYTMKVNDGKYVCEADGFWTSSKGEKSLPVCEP
# measurement-notes: MASP-2 co-crystallization, X-ray crystallography and structure analysis (H-bonds, van der Waals contacts)
# experimental-parameters: Table A5-1 pharmacophore: distance between elements, S2/S1 region
Provide the recorded d(CA1,N1) for the entries that follow.
Numbers only.

C[C@H](NC(=O)[C@H](N)C1Cc2ccccc2C1)C(=O)NCc1ccc2nc(N)[nH]c2c1 ... 1.85
N=C(N)c1ccc(CNC(=O)[C@@H]2CCN2C(=O)[C@H]2Cc3ccccc3CN2)cc1 ... 3.64
C[C@H](NC(=O)[C@H]1C[C@H](Cc2ccccc2)CN1)C(=O)NCc1ccc(C(=N)N)cc1.Cl.Cl [1306_1] ... 3.54
C[C@H](NC(=O)[C@@H](CCc1ccccc1)NCCCc1ccc(O)cc1)C(=O)NCc1ccc(C(=N)N)cc1.Cl.Cl ... 3.54
CNC(=O)c1ccc2c(=O)n(Cc3ccccc3)c(=O)n(CC(=O)NCc3ccc(C(=N)N)cc3)c2c1 ... 3.56

Would you mind listing d(CA1,N1) for each of the following compounds?
1. C[C@H](NC(=O)[C@H]1Cc2c([nH]c3ccccc23)CN1)C(=O)NCc1ccc(C(=N)N)cc1.Cl.Cl [1097_1]
2. C[C@H](NC(=O)[C@H](N)CCc1ccccc1)C(=O)NCc1ccc(C(=N)N)cc1
3. C[C@H](NC(=O)[C@H]1C[C@@H](c2ccccc2)CCN1)C(=O)NCc1ccc(C(=N)N)cc1 (stereo in doubt)
4. C[C@H](NC(=O)[C@H]1C[C@H](Cc2ccccc2)CN1)C(=O)NCc1ccc(C(=N)N)cc1.Cl.Cl [1306_2]

Result:
[3.53, 3.55, 3.47, 3.60]

* * *

# assayed-target: MASP-2 CCP2-SP (Homo sapiens (Human))
# measurement-notes: MASP-2 co-crystallization, X-ray crystallography and structure analysis (H-bonds, van der Waals contacts)
# Set-up: unit not given beside the values
# experimental-parameters: Table A5-1 pharmacophore: distance between elements, S2/S1 region
Where a name gives a salt, the structure may show the parent alone.
value-kind: d(O1,O2)

C[C@H](NC(=O)[C@H](N)CCCc1ccccc1)C(=O)NCc1ccc(C(=N)N)cc1.Cl.Cl [1042_1] ... 3.40

Would you mind listing d(O1,O2) for each of the following compounds?
1. Cc1cccc([C@H]2CN[C@@H](C(=O)N[C@@H](C)C(=O)NCc3ccc(N)nc3C)C2)c1 [compound 1257, Dihydrochloride]
2. C[C@H](NC(=O)[C@H]1C[C@H](Cc2ccccc2)CN1)C(=O)NCc1cnc2[nH]cc(Cl)c2c1
3. C[C@H](NC(=O)[C@H]1C[C@@H](c2ccccc2)CCN1)C(=O)NCc1cnc2[nH]cc(Cl)c2c1
4. Cc1nc(N)ccc1CNC(=O)[C@H](C)NC(=O)[C@H]1C[C@H](Cc2cccc(-c3ccccc3)c2)CN1
5. Cc1nc(N)ccc1CNC(=O)[C@H](C)NC(=O)[C@H]1C[C@H](Cc2ccccc2Br)CN1.O=C(O)C(F)(F)F.O=C(O)C(F)(F)F [1372_B]
6. C[C@H](NC(=O)[C@H]1C[C@@H](c2ccccc2)CCN1)C(=O)NCc1cc(Cl)ccc1O.Cl [1078_13]

Result:
[3.61, 3.24, 3.46, 3.29, 3.35, 3.25]

* * *

# assayed-target: MASP-2 CCP2-SP (Homo sapiens (Human))
# measurement-notes: MASP-2 co-crystallization, X-ray crystallography and structure analysis (H-bonds, van der Waals contacts)
# experimental-parameters: Table A5-1 pharmacophore: distance between elements, S2/S1 region
Where a name gives a salt, the structure may show the parent alone.
Provide the recorded d(CA1,N1) for the entries that follow.

Below, each entry is followed by its recorded d(CA1,N1) result.
N=C(N)c1ccc(CNC(=O)[C@@H]2CCN2C(=O)[C@H](NCC(=O)O)C2Cc3ccccc3C2)cc1 ... 3.60
CC(NC(=O)C(CCc1ccccc1)NCc1ccc(C(=O)N2CCOCC2)cc1)C(=O)NCc1ccc(C(=N)N)cc1.Cl.Cl (stereo not shown) ... 3.54
C[C@H](NC(=O)[C@H](N)CCCc1ccccc1)C(=O)NCc1ccc(C(=N)N)cc1.Cl.Cl [1042_2] ... 3.61
C[C@H](NC(=O)[C@H](N)CCc1cc(Cl)cc(Cl)c1)C(=O)NCc1ccc(C(=N)N)cc1 ... 3.55
N=C(N)c1ccc(CNC(=O)C(CF)NC(=O)[C@H](N)CCc2ccccc2)cc1 (stereo partly shown) [compound 1050, Dihydrochloride] ... 3.47

Would you mind listing d(CA1,N1) for each of the following compounds?
1. C[C@H](NC(=O)[C@@H](CCc1ccccc1)NCc1ccc(N2CCOCC2)cc1)C(=O)NCc1ccc(C(=N)N)cc1
2. CC(NC(=O)C(CCc1ccccc1)NCCCc1ccc(O)cc1)C(=O)NCc1ccc(C(=N)N)cc1.Cl.Cl (stereo not shown)

Result:
1: 3.57; 2: 3.54
